B1: SMOC2 (parent)
chain: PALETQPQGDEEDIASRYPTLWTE

# Variants of: B1
# Measurement notes: protein stability index of a GFP-peptide fusion (GPS, HEK-293T) (PSI 1-6); higher = more stable;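 note: lentivirally expressed fusions sorted by FACS into six bins by GFP to DsRed ratio, PSI derived from sequencing read proportions per bin multiplied by bin number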
# Condition parameters: c terminus: a fixed tail appended
Measurement label: protein stability index
API note: the answer field is a bare number with no unit suffix.

Here's what some known entries look like.
Q. Data request, read-out protein stability index, for Q6F
A. 4.25

Q. Data request, read-out protein stability index, for Q6P
A. 4.55

Q. Data request, read-out protein stability index, for P19R
A. 4.2

Pending variant:
Q. Data request, read-out protein stability index, for T5H
A. 4.64
